Test: NCI Yeast Anticancer Drug Screen. Data for the mlh1 rad18 strain (AID 175)
Details: S. cerevisiae mlh1 rad18 strain growth inhibition; at 50.0 µM (retest, dose inferred, filed as 5.0); hits give high values
About 79,000 compounds went through this panel and 15% of them were active in at least one assay; those are over-represented in the sample as a whole.
Parameter: growth inhibition. Scope: all listed entries.
API: value field is a number in %; no unit string.

Observe how each entry below is paired with its result.
compound | value units | growth inhibition
C=CC(=O)Nc1ccccc1CC(c1c[nH]c2ccccc12)c1c[nH]c2ccccc12 | % | 27
CCN(CC)c1c(C(=O)/C=C/c2ccc(F)cc2)c(-c2ccccc2)nn(C)c1=O | % | 1
CCCCNC(=O)OCc1c(COC(=O)NCCCC)c(-c2ccc(Cl)c(Cl)c2)n2c1CCC2 | % | 98

Task item: Recorded growth inhibition of CC(CN(C)C)C(=O)c1cn(C)c2ccccc12 (stereo not given) , please.
Reply: 1

Task item: Recorded growth inhibition of CC1=NN(c2ccccc2)C(=O)C1N=Nc1cc(Cl)cc(S(=O)(=O)O)c1O (stereo not given) , please.
Reply: 99

----------
Assay: NCI Yeast Anticancer Drug Screen. Data for the mec2-1 strain (AID 157)
Conditions: S. cerevisiae mec2-1 strain, at 50.0 µM
Compounds without any hit were thinned out: in the full panel of roughly 79,000, 15% have a hit. Calls of active or inactive are those of the source. Cut-off read from the data, not from the text of the source: active = growth inhibition above about 70%; inactive = the rest.
Just give me one of these, please: active, inactive

Example cases with answers are listed next.
compound | label value
CC(C)N(CC(=O)c1ccc2cc(Cl)c3ccccc3c2c1)C(C)C | active
N#Cc1ccccc1NC1OCC(O)C(O)C1O (configuration not stated) | inactive
Cc1cccc(/C=N/NC(=S)Nc2ccccc2)n1 | active
Cc1ccc(O)c(C(c2cc(C)ccc2O)c2ccccc2Cl)c1 | active
COc1ccccc1/C=C1\SC(=S)N(/C=C2\C(=O)Oc3ccccc3C2=O)C1=O | inactive

Task item: Per the assay record, what outcome was assigned to COC(=O)C(=O)C(C(=O)Nc1cccc(C)c1C)C1Sc2ccccc2NC1=O (configuration not stated) ?
Reply: active

Task item: Per the assay record, what outcome was assigned to COc1ccc(C2c3cc4c(cc3OC(O)(CO)C2C(=O)O)OCO4)cc1 (configuration not stated) (tested in a mixture with another compound) ?
Reply: active

----------
Assay: NCI Yeast Anticancer Drug Screen. Data for the bub3 strain (AID 167)
Details: S. cerevisiae bub3 mutant strain, at 50.0 µM (retest, dose inferred, filed as 5.0), hits give high values
About 79,000 compounds went through this panel and 15% of them were active in at least one assay; those are over-represented in the sample as a whole.
Parameter: growth inhibition. Scope: all listed entries.
API: value field is a number in %; no unit string.

compound | growth inhibition, %
COC(=O)c1nc(=S)[nH]c(C(=O)OC)c1C(=O)c1c(C)[nH]c2ccccc12 | -7

Task item: Recorded growth inhibition of O=C(c1cccs1)N(C(=S)N1CCN(c2ccccn2)CC1)c1ccccc1 , please.
Reply: 3

Task item: Recorded growth inhibition of Cc1c(O)c(Br)c(C)c(O)c1Br (tested in a mixture with another compound) , please.
Reply: 77

Task item: Recorded growth inhibition of CC(O)CCCOC(c1ccccc1)(c1ccccc1)c1ccccc1 (stereo not given) , please.
Reply: 93

Task item: Recorded growth inhibition of S=C(Nc1ccc(Cl)c(Cl)c1)N1c2ccccc2-n2cccc2C1c1cccnc1 (stereo not given) , please.
Reply: 89
